- target_or_system: human GLP-1 receptor (human, UniProt P43220 24-463)
- assay_remarks: cell-based or functional assay
Lab note: anything with cAMP EC50 at or over 2 nM counts as True; the rest go in False.

- binder: "YXEGTXTSDYSIXLDXKAQXEFIXYLIEGGPSSGAPPPS (Aib2; αMeF(2F)6; αMeL13; Orn16; K17((2-[2-(2-Amino-ethoxy)-ethoxy]-acetyl)2-(γ-Glu)-CO-(CH2)16-CO2H); Aib20; D-Glu24; C-terminal amide) [Example 2]"
  label: "True"
- binder: "YXEGTXTSDVSIXLDXKAQXEFIXXLIEGGPSSGAPPPS (Aib2; αMeF(2F)6; αMeL13; Orn16; K17((2-[2-(2-Amino-ethoxy)-ethoxy]-acetyl)2-(γ-Glu)-CO-(CH2)16-CO2H); Aib20; D-Glu24; αMeY25; C-terminal amide) [Example 5]"
  label: "False"
- binder: "YXEGTXTSDYSIXLDEKAQXEFIXYLIEGGPSSGAPPPS (Aib2; αMeF(2F)6; αMeL13; K17((2-[2-(2-Amino-ethoxy)-ethoxy]-acetyl)2-(γ-Glu)-CO-(CH2)18-CO2H); Aib20; D-Glu24; C-terminal amide) [Example 1]"
  label: "True"

Continue with the binder presented below.
Item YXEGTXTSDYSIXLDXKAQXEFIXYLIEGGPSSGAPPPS (Aib2; αMeF(2F)6; αMeL13; Orn16; K17((2-[2-(2-Amino-ethoxy)-ethoxy]-acetyl)2-(γ-Glu)-CO-(CH2)18-CO2H); Aib20; D-Glu24; C-terminal amide) [Example 3] with cAMP EC50 of 2 nM or above? True
